System: Mus musculus
Experiment: Evaluated for anticonvulsant activity when administered orally in mice by Maximal electroshock (MES).
Type: functional
Settings: po

smiles input | ED50
Cc1cc(Cl)ccc1-c1ccc(N2CCC(O)CC2)nn1 | 10 mg/kg
Cc1ccc(-c2ccc(N3CCC(O)CC3)nn2)cc1 | 73 mg/kg
O=C1CCN(c2ccc(-c3ccc(Cl)cc3Cl)nn2)CC1 | 5 mg/kg
O=[N+]([O-])c1cccc(-c2ccc(N3CCC(O)CC3)nn2)c1 | 79 mg/kg

These data points were gathered from ChEMBL document CHEMBL1123469.
